Let's look at some compounds and their measured IC50.
experiment: cells; conditions: Homo sapiens, A875, 72 h
State just the number; it will be interpreted in nM.

// below: answered compounds
INSERT INTO measurements (record_smiles, measurement_type, experimental_value) VALUES
  ('CN[C@@H](C)C(=O)N[C@H](C(=O)N1C[C@@H]2C[C@H]1C(=O)N[C@@H](Cc1ccc3ccccc3c1)C(=O)N[C@H](C(=O)O)Cc1ccc(cc1)OCc1cn(nn1)[C@H]1C[C@@H](C(=O)N[C@@H](Cc3ccc4ccccc4c3)C(=O)N[C@H](C(=O)O)Cc3ccc(cc3)OCc3cn2nn3)N(C(=O)[C@@H](NC(=O)[C@H](C)NC)C(C)(C)C)C1)C(C)(C)C', 'IC50', 73),
  ('CN[C@@H](C)C(=O)N[C@H](C(=O)N1C[C@@H]2C[C@H]1C(=O)N[C@@H](Cc1ccc3ccccc3c1)C(=O)N[C@H](C(=O)O)Cc1ccc(cc1)OCc1cn(nn1)[C@H]1C[C@@H](C(=O)N[C@@H](Cc3ccc4ccccc4c3)C(=O)N[C@H](c3nnn[nH]3)Cc3ccc(cc3)OCc3cn2nn3)N(C(=O)[C@@H](NC(=O)[C@H](C)NC)C(C)(C)C)C1)C(C)(C)C', 'IC50', 83),
  ('CN[C@@H](C)C(=O)N[C@H](C(=O)N1C[C@H]2CCCCOc3ccc(cc3)C[C@@H](C(=O)O)NC(=O)[C@H](Cc3ccc4ccccc4c3)NC(=O)[C@@H]3C[C@@H](CN3C(=O)[C@@H](NC(=O)[C@H](C)NC)C(C)(C)C)n3cc(nn3)COc3ccc(cc3)C[C@@H](NS(=O)(=O)C3CC3)NC(=O)[C@H](Cc3ccc4ccccc4c3)NC(=O)[C@@H]1C2)C(C)(C)C', 'IC50', 19);

Task: Which IC50 value is on record for CN[C@@H](C)C(=O)N[C@H](C(=O)N1C[C@@H]2C[C@H]1C(=O)N[C@@H](Cc1ccc3ccccc3c1)C(=O)N[C@H](NS(=O)(=O)C1CC1)Cc1ccc(cc1)OCc1cn(nn1)[C@H]1C[C@@H](C(=O)N[C@@H](Cc3ccc4ccccc4c3)C(=O)N[C@H](C(=O)O)Cc3ccc(cc3)OCc3cn2nn3)N(C(=O)[C@@H](NC(=O)[C@H](C)NC)C(C)(C)C)C1)C(C)(C)C ?
Result: 39

---

test: in vivo; conditions: rat, iv, 1 mg/kg
measurement_type: AUC(0-t) at 7 h (µM·h)
State just the number; it will be interpreted in µM·h.

Task: Which AUC(0-t) at 7 h value is on record for CN[C@@H](C)C(=O)N[C@H](C(=O)N1C[C@H]2CCCCOc3ccc(cc3)C[C@@H](C(=O)O)NC(=O)[C@H](Cc3ccc4ccccc4c3)NC(=O)[C@@H]3C[C@@H](CN3C(=O)[C@@H](NC(=O)[C@H](C)NC)C(C)(C)C)n3cc(nn3)COc3ccc(cc3)C[C@@H](NS(=O)(=O)C3CC3)NC(=O)[C@H](Cc3ccc4ccccc4c3)NC(=O)[C@@H]1C2)C(C)(C)C ?
Result: 1.71

---

test: in vivo; conditions: dog, iv, 0.3 mg/kg
measurement_type: clearance (mL/min/kg)
State just the number; it will be interpreted in mL/min/kg.

Task: Which clearance value is on record for CN[C@@H](C)C(=O)N[C@H](C(=O)N1C[C@H]2CCCCOc3ccc(cc3)C[C@@H](C(=O)O)NC(=O)[C@H](Cc3ccc4ccccc4c3)NC(=O)[C@@H]3C[C@@H](CN3C(=O)[C@@H](NC(=O)[C@H](C)NC)C(C)(C)C)n3cc(nn3)COc3ccc(cc3)C[C@@H](NS(=O)(=O)C3CC3)NC(=O)[C@H](Cc3ccc4ccccc4c3)NC(=O)[C@@H]1C2)C(C)(C)C ?
Result: 0.4

---

experiment: physchem; conditions: buffer, pH 7.4
Let's look at some molecules and their measured solubility.
State just the number; it will be interpreted in mg/mL.

INSERT INTO measurements (record_smiles, measurement_type, measure_unit, experimental_value) VALUES
  ('CN[C@@H](C)C(=O)N[C@H](C(=O)N1C[C@H]2CCCCOc3ccc(cc3)C[C@@H](C(=O)O)NC(=O)[C@H](Cc3ccc4ccccc4c3)NC(=O)[C@@H]3C[C@@H](CN3C(=O)[C@@H](NC(=O)[C@H](C)NC)C(C)(C)C)n3cc(nn3)COc3ccc(cc3)C[C@@H](NS(=O)(=O)C3CC3)NC(=O)[C@H](Cc3ccc4ccccc4c3)NC(=O)[C@@H]1C2)C(C)(C)C', 'solubility', 'mg/mL', 0.05);

Task: Which solubility value is on record for CN[C@@H](C)C(=O)N[C@H](C(=O)N1C[C@@H]2C[C@H]1C(=O)N[C@@H](Cc1ccc3ccccc3c1)C(=O)N[C@H](C(=O)O)Cc1ccc(cc1)OCc1cn(nn1)[C@H]1C[C@@H](C(=O)N[C@@H](Cc3ccc4ccccc4c3)C(=O)N[C@H](C(=O)O)Cc3ccc(cc3)OCc3cn2nn3)N(C(=O)[C@@H](NC(=O)[C@H](C)NC)C(C)(C)C)C1)C(C)(C)C ?
Result: 0.13

---

test: in vivo; details: rat, iv, 1 mg/kg
measurement_type: half-life (h)
State just the number; it will be interpreted in h.

Task: Which half-life value is on record for CN[C@@H](C)C(=O)N[C@H](C(=O)N1C[C@H]2CCCCOc3ccc(cc3)C[C@@H](C(=O)O)NC(=O)[C@H](Cc3ccc4ccccc4c3)NC(=O)[C@@H]3C[C@@H](CN3C(=O)[C@@H](NC(=O)[C@H](C)NC)C(C)(C)C)n3cc(nn3)COc3ccc(cc3)C[C@@H](NS(=O)(=O)C3CC3)NC(=O)[C@H](Cc3ccc4ccccc4c3)NC(=O)[C@@H]1C2)C(C)(C)C ?
Result: 1

---

assay: in vitro; conditions: dog, plasma
measurement_type: fraction unbound
# respond with the number and nothing more

Task: Which fraction unbound value is on record for CN[C@@H](C)C(=O)N[C@H](C(=O)N1C[C@H]2CCCCOc3ccc(cc3)C[C@@H](C(=O)O)NC(=O)[C@H](Cc3ccc4ccccc4c3)NC(=O)[C@@H]3C[C@@H](CN3C(=O)[C@@H](NC(=O)[C@H](C)NC)C(C)(C)C)n3cc(nn3)COc3ccc(cc3)C[C@@H](NS(=O)(=O)C3CC3)NC(=O)[C@H](Cc3ccc4ccccc4c3)NC(=O)[C@@H]1C2)C(C)(C)C ?
Result: 0.024

---

assay: in vitro; details: mouse, plasma
measurement_type: fraction unbound
# respond with the number and nothing more

Task: Which fraction unbound value is on record for CN[C@@H](C)C(=O)N[C@H](C(=O)N1C[C@H]2CCCCOc3ccc(cc3)C[C@@H](C(=O)O)NC(=O)[C@H](Cc3ccc4ccccc4c3)NC(=O)[C@@H]3C[C@@H](CN3C(=O)[C@@H](NC(=O)[C@H](C)NC)C(C)(C)C)n3cc(nn3)COc3ccc(cc3)C[C@@H](NS(=O)(=O)C3CC3)NC(=O)[C@H](Cc3ccc4ccccc4c3)NC(=O)[C@@H]1C2)C(C)(C)C ?
Result: 0.058

---

test: in vivo; conditions: dog, iv, 0.3 mg/kg
measurement_type: half-life (h)
State just the number; it will be interpreted in h.

Task: Which half-life value is on record for CN[C@@H](C)C(=O)N[C@H](C(=O)N1C[C@H]2CCCCOc3ccc(cc3)C[C@@H](C(=O)O)NC(=O)[C@H](Cc3ccc4ccccc4c3)NC(=O)[C@@H]3C[C@@H](CN3C(=O)[C@@H](NC(=O)[C@H](C)NC)C(C)(C)C)n3cc(nn3)COc3ccc(cc3)C[C@@H](NS(=O)(=O)C3CC3)NC(=O)[C@H](Cc3ccc4ccccc4c3)NC(=O)[C@@H]1C2)C(C)(C)C ?
Result: 4.7

---

assay: in vivo; settings: rat, iv, 1 mg/kg
measurement_type: clearance (mL/min/kg)
State just the number; it will be interpreted in mL/min/kg.

Task: Which clearance value is on record for CN[C@@H](C)C(=O)N[C@H](C(=O)N1C[C@H]2CCCCOc3ccc(cc3)C[C@@H](C(=O)O)NC(=O)[C@H](Cc3ccc4ccccc4c3)NC(=O)[C@@H]3C[C@@H](CN3C(=O)[C@@H](NC(=O)[C@H](C)NC)C(C)(C)C)n3cc(nn3)COc3ccc(cc3)C[C@@H](NS(=O)(=O)C3CC3)NC(=O)[C@H](Cc3ccc4ccccc4c3)NC(=O)[C@@H]1C2)C(C)(C)C ?
Result: 6.2

---

Let's look at some molecules and their measured half-life.
assay: in vivo; settings: Balb/C, mouse, iv, 1 mg/kg
State just the number; it will be interpreted in h.

// below: answered molecules
INSERT INTO assay_data (record_smiles, experimental_value) VALUES
  ('CN[C@@H](C)C(=O)N[C@H](C(=O)N1C[C@@H]2C[C@H]1C(=O)N[C@@H](Cc1ccc3ccccc3c1)C(=O)N[C@H](NS(=O)(=O)C1CC1)Cc1ccc(cc1)OCc1cn(nn1)[C@H]1C[C@@H](C(=O)N[C@@H](Cc3ccc4ccccc4c3)C(=O)N[C@H](C(=O)O)Cc3ccc(cc3)OCc3cn2nn3)N(C(=O)[C@@H](NC(=O)[C@H](C)NC)C(C)(C)C)C1)C(C)(C)C', 1),
  ('CN[C@@H](C)C(=O)N[C@H](C(=O)N1C[C@H]2CCCCOc3ccc(cc3)C[C@@H](C(=O)O)NC(=O)[C@H](Cc3ccc4ccccc4c3)NC(=O)[C@@H]3C[C@@H](CN3C(=O)[C@@H](NC(=O)[C@H](C)NC)C(C)(C)C)n3cc(nn3)COc3ccc(cc3)C[C@@H](NS(=O)(=O)C3CC3)NC(=O)[C@H](Cc3ccc4ccccc4c3)NC(=O)[C@@H]1C2)C(C)(C)C', 1.7);

Attention now shifts to the item below.
Task: Which half-life value is on record for CN[C@@H](C)C(=O)N[C@H](C(=O)N1C[C@@H]2C[C@H]1C(=O)N[C@@H](Cc1ccc3ccccc3c1)C(=O)N[C@H](NS(=O)(=O)C1CC1)Cc1ccc(cc1)OCc1cn(nn1)[C@H]1C[C@@H](C(=O)N[C@@H](Cc3ccc4ccccc4c3)C(=O)N[C@H](NS(=O)(=O)C3CC3)Cc3ccc(cc3)OCc3cn2nn3)N(C(=O)[C@@H](NC(=O)[C@H](C)NC)C(C)(C)C)C1)C(C)(C)C ?
Result: 0.9
